Test system: P. falciparum 3D7 parasites
assayProcedure: P. falciparum growth inhibition assay, 2-cycle (120 h treatment), delayed-death screen and dose-response
Type: cell-based, Plasmodium falciparum
condition: Plasmodium falciparum, 3D7; P. falciparum, 120 h, screen at 2 μg/mL, replicate 2; read-out: Pf_120h_%Growth_Rep2
measuredProperty: activity at 2 µg/mL (%)
Your answer is read as %, so omit the unit and give the number.

## Input Please report the recorded activity at 2 µg/mL for COc1cc(-c2oc3c(OC)c(OC)cc(O)c3c(=O)c2OC)ccc1O [Ternatin] .
## Output 71.9

## Input Item: COc1c(CC(C)O)c2c3c(CC(C)O)c(OC)c(=O)c4c(O)cc5c(c6c(cc(O)c(c1=O)c62)OCO5)c43 (centres unmarked) [Cercosporin]
## Output 4.28

## Input For NC(=O)C=Cc1ccccc1 [Cinnamamide] then?
## Output 94.1

## Input And CO[C@H]1C[C@@H]2CC[C@@H](C)[C@@](O)(O2)C(=O)C(=O)N2CCCC[C@H]2C(=O)O[C@H]([C@H](C)C[C@@H]2CC[C@H](n3cnnn3)[C@H](OC)C2)CC(=O)[C@H](C)/C=C(\C)[C@@H](O)[C@@H](OC)C(=O)[C@H](C)C[C@H](C)/C=C/C=C/C=C/1C [Zotarolimus] ?
## Output 77.1

## Input Next: CC[C@H]1OC(=O)C[C@@H](O)[C@H](C)[C@@H](O[C@@H]2O[C@H](C)[C@@H](O[C@H]3C[C@@](C)(O)[C@@H](O)[C@H](C)O3)[C@H](N(C)C)[C@H]2O)[C@@H](CC=O)C[C@@H](C)C(=O)/C=C/C(C)=C/[C@@H]1CO[C@@H]1O[C@H](C)[C@@H](O)[C@@H](OC)[C@H]1OC [Tylosin, reference compound]
## Output 3.04

# credit: paper PMC12396409
